target.system: Platelet-derived growth factor receptor beta (Homo sapiens) (UniProt P09619)
Sequence (P09619 whole entry): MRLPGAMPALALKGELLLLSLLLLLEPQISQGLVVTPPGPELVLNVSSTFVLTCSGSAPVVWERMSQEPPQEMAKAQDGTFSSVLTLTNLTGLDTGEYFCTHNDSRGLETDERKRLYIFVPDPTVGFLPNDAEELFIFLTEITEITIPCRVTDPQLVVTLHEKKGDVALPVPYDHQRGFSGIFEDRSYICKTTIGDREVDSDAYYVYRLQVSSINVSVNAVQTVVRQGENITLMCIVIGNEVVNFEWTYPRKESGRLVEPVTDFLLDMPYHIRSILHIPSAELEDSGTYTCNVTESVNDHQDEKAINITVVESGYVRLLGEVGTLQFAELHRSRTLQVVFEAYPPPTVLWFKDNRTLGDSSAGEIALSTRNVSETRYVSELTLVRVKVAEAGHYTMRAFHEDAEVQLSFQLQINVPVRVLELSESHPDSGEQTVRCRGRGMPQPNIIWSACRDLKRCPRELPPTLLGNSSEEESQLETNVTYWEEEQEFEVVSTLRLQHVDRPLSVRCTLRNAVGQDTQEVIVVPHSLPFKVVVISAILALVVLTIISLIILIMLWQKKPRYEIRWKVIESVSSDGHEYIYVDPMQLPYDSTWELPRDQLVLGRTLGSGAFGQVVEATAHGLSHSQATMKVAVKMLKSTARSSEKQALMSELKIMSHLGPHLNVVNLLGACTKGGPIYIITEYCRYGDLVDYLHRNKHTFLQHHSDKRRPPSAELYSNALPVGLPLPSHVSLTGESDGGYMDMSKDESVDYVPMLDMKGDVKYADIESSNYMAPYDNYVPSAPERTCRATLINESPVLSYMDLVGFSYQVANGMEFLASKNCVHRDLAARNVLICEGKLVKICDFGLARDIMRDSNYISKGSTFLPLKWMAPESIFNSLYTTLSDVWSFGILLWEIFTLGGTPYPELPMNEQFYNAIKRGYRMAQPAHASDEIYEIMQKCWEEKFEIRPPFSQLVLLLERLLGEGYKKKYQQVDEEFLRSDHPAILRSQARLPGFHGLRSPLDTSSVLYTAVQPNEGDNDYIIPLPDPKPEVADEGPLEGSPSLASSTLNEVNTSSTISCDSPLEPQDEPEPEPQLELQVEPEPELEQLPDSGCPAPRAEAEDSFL
condition.parameters: at 10 µM
For each of the compounds below, state its residual activity.
Just the number in %, nothing appended.

Incoming: What value of residual activity has been reported for the following compound? `CO[C@H]1C[C@@H]2CC[C@@H](C)[C@@](O)(O2)C(=O)C(=O)N2CCCC[C@H]2C(=O)O[C@H]([C@H](C)C[C@@H]2CC[C@@H](O)[C@H](OC)C2)CC(=O)[C@H](C)/C=C(\C)[C@@H](O)[C@@H](OC)C(=O)[C@H](C)C[C@H](C)/C=C/C=C/C=C/1C`
Outgoing: 114

Incoming: What value of measured residual activity is listed for `O=C1c2ccccc2-[n+]2ccc3c([nH]c4ccccc43)c21` ?
Outgoing: 102

Incoming: Query: residual activity; subject: `Cc1cc(Nc2nc(-c3ccccc3)nc3ccccc23)n[nH]1`
Outgoing: 28

Incoming: Look up residual activity for this compound: `O=C1Nc2ccc(Br)cc2/C1=C\c1cc2c([nH]1)CCCC2`
Outgoing: 51

Incoming: Fill in: residual activity of `O=C1NC(=O)/C(=C\c2ccc3nccnc3c2)S1` is ___
Outgoing: 106

Incoming: Using the record for `COc1cc2ncnc(Nc3ccc(NC(=O)c4ccccc4)cc3)c2cc1OC` , report its residual activity.
Outgoing: 102

Incoming: What residual activity value was documented for this compound, `Oc1ccc(Nc2nc(-c3ccc(Cl)cc3)cs2)cc1` ?
Outgoing: 137

Incoming: Fill blank: measured residual activity of the compound `C[C@@H](N)[C@H]1CC[C@H](C(=O)Nc2ccncc2)CC1` is ____.
Outgoing: 106

Incoming: Any idea what residual activity was measured for `N#C/C(=C(\N)Sc1ccc(N)cc1)c1ccccc1C(F)(F)F` ?
Outgoing: 102

Incoming: Data request, read-out residual activity, for `Oc1ccc(-c2nc(-c3ccc(F)cc3)c(-c3ccncc3)[nH]2)cc1`
Outgoing: 97

Incoming: Fill blank: measured residual activity of the compound `CN(C)c1ccc(/C=C2\C(=O)Nc3ccccc32)cc1` is ____.
Outgoing: 30

Incoming: // lookup residual activity for `O=Nc1c(-c2c(O)[nH]c3ccccc23)[nH]c2ccccc12`
Outgoing: 26

Incoming: So what does the record say about residual activity for `Ic1cccc(CSc2nnc(-c3ccncc3)o2)c1` ?
Outgoing: 97

Incoming: If you can, please state the reported residual activity value of `O=C(Nc1cccc(Nc2cc(Nc3cccc(C(F)(F)F)c3)ncn2)c1)C1CC1` .
Outgoing: 93

Incoming: residual activity for `COc1cc2ncc(-c3ccccc3)nc2cc1OC` ?
Outgoing: 73

Incoming: Quick check: residual activity of `CCN(CC)CCCCN1c2ccccc2Oc2ccc(Cl)cc21` ?
Outgoing: 108

Incoming: Please give the measured residual activity for this compound: `Cc1ccc(NC2=CC(=O)c3sc(C)nc3C2=O)cc1`
Outgoing: 92

Incoming: Please look up its residual activity: `Cc1nc2cc3nc(-c4cccs4)cnc3cc2n1C`
Outgoing: 46

Incoming: Endpoint output: residual activity of `Nc1nc(Nc2ccc(S(N)(=O)=O)cc2)nn1C(=S)Nc1c(F)cccc1F` . Value?
Outgoing: 24

Incoming: Recorded residual activity for `N#Cc1cnc2cnc(NCc3cccnc3)cc2c1Nc1ccc(F)c(Cl)c1` , please?
Outgoing: 88

Incoming: # input compound: `Cc1ccc(S(=O)(=O)/C=C/C#N)cc1` ; wanted: its residual activity
Outgoing: 107

Incoming: Any idea what its residual activity is? The compound is `CN(C)CCCn1cc(C2=C(c3c[nH]c4ccccc34)C(=O)NC2=O)c2ccccc21`
Outgoing: 65

Incoming: // query residual activity value for entry `COc1cc2ncnc(Nc3ccc(O)c(Br)c3)c2cc1OC`
Outgoing: 83

Incoming: // lookup residual activity for `Cc1cncc2cccc(S(=O)(=O)N3CCCN(C(=O)CN)C[C@H]3C)c12`
Outgoing: 96

Incoming: Would you kindly share the measured residual activity for `CCOc1cc2ncnc(Nc3cccc(Br)c3)c2cc1OCC` ?
Outgoing: 91

Incoming: May I ask what residual activity has been recorded for `O=c1c2ccccc2[nH]c(=S)n1CCN1CCC(=C(c2ccc(F)cc2)c2ccc(F)cc2)CC1` ?
Outgoing: 85

Incoming: Value lookup for residual activity; key = `COc1cccc(-c2cc(=O)c3ccccc3o2)c1N`
Outgoing: 108

Incoming: residual activity for `COc1ccc(S(=O)(=O)N(CCO)c2ccccc2CN(C)C/C=C/c2ccc(Cl)cc2)cc1` ?
Outgoing: 104

Incoming: // residual activity lookup, key: `CC(C)n1cnc2/c(=N/c3cccc(Cl)c3)nc(NCCO)[nH]c21`
Outgoing: 113

Incoming: Given the entry `COc1ccc(OC)c2c(=S)c3ccccc3[nH]c12` , report its measured residual activity.
Outgoing: 102

Incoming: residual activity lookup needed for `c1ccc(-c2n[nH]cc2-c2ccnc3ccccc23)nc1` , thanks.
Outgoing: 109

Incoming: Entry `COc1ccc(C(=O)Nc2sc3c(c2C(N)=O)CCCC3)cc1OC` has what residual activity?
Outgoing: 97

Incoming: May I ask what residual activity has been recorded for `CNc1cc2c(Nc3cccc(Br)c3)ncnc2cn1` ?
Outgoing: 113

Incoming: Which residual activity is listed for `Nc1ccc2ncnc(NCCc3ccc(Oc4ccccc4)cc3)c2c1` ?
Outgoing: 95

Incoming: Record request: residual activity value, item `CO[C@H]1[C@@H](OC)C[C@H](C)[C@@H](OC)C2=CC(=O)C=C(NC(=O)/C(C)=C/C=C/[C@H](OC)[C@@H](OC(N)=O)/C(C)=C/[C@@H]1C)C2=O`
Outgoing: 80

Incoming: Need residual activity, item `CC(=O)O/N=C1\C(=C2\C(=O)Nc3cc(Br)ccc32)Nc2ccccc21`
Outgoing: 52

Incoming: Look at this compound and give its reported residual activity. `Cn1cnc2cc3c(Nc4cccc(Br)c4)ncnc3cc21`
Outgoing: 81

Incoming: For the compound shown here, `COc1cc2ncnc(Nc3ccc(Oc4ccccc4)cc3)c2cc1OC` , give the reported residual activity.
Outgoing: 83

Incoming: What does the record list as residual activity for `O=C1NC(=O)c2c1c1c3ccccc3[nH]c1c1[nH]c3cc(Br)ccc3c21` ?
Outgoing: 76
